src = ChEMBL document CHEMBL4002582

# Tested on: BV-2
# assay_name: Antiinflammatory activity in mouse BV2 cells assessed as inhibition of LPS-induced nitric oxide production incubated for 24 hrs by Griess assay
# Format: functional, cell-based
# experimental_conditions: BV-2, 24 h
readout_type: IC50 (µM)
Numbers only, in µM.

smiles_record: CC(=O)O[C@H]1CC(C)(C)[C@@H]2CC[C@@]34C=C(C(C)C)C(=O)C(O)=C3[C@@]2(CO4)C1
IC50 [µM]: 5.7
//
smiles_record: CC(C)C1=CC[C@@]2(C)[C@H](O)CC[C@](C)(O)[C@@H]2C1
IC50 [µM]: 63.5
//
smiles_record: CC1=CC[C@@H]2[C@@H]3C[C@H]1[C@@]2(C)[C@@H](O)C[C@@H]3C(C)C
IC50 [µM]: 92.9
//
smiles_record: CSC(=N)N
IC50 [µM]: 2.9
//
smiles_record: CC(C)c1cc2c(c(O)c1O)C[C@@]1(O)CCCC(C)(C)[C@@H]1CC2
IC50 [µM]: 10.6

I would be grateful if you could provide IC50 for each of the following entries.
1. CC(C)C1=C[C@@]23CC[C@H]4C(C)(C)C[C@H](O)C[C@]4(CO2)C3=C(O)C1=O
2. CC(=O)OC[C@@]1(O)CC[C@@H]2[C@H]([C@H]3[C@H]1CC[C@]3(C)O)C2(C)C
3. CC(=O)[C@H]1CC[C@@H]2[C@@H]1[C@H](C(C)C)CC[C@@]2(C)O
4. CC(=O)O[C@H]1CC(C)(C)C2=C(O)C(=O)c3cc(C(C)C)c(O)c(O)c3[C@@]2(C)C1

A)
14.8
47.6
38.9
26.5
